Data credit: PubChem BioAssay (NCI)

Tested on: NCI-H522 lung
assay.name: NCI-60 one-dose screen, 48 h
applied.conditions: 10 µM unless noted
The panel holds about 83,000 compounds, 20% with a hit somewhere; the sample as a whole holds those more often. Activity calls are given as the source filed them. Rule for the calls: active = growth percent below 10; inactive = the rest.
Assign a class; possible classes are 1 for active, -1 for inactive

Could you please tell me the result logged for CN(C)c1ccc(/C=N/NC(=O)CSc2nc3sc4c(c3c(=O)n2-c2ccccc2)CCCCC4)cc1 in this assay? -1

Could you please tell me the result logged for COc1ccc(-c2cc(-c3ccc(Nc4nc(Nc5ccc(Cl)cc5)nc(Nc5ccc(Cl)cc5)n4)cc3)no2)cc1 in this assay? -1

Could you please tell me the result logged for C#CCOc1cccc(Nc2ncnc3c(NC(=O)CCl)cccc23)c1 in this assay? 1

Could you please tell me the result logged for C=C(CNCCc1ccc(O)cc1)[C@@H]1CC[C@]2(CO)CC[C@]3(C)[C@H](CC[C@@H]4[C@@]5(C)CCC(N)C(C)(C)[C@@H]5CC[C@]43C)[C@@H]12 (some centres undefined) in this assay? 1

Could you please tell me the result logged for COc1ccccc1NC(=O)n1c(=O)cc(C)c2ccc(O)cc21 in this assay? -1

Could you please tell me the result logged for COC(=O)[C@@H](Cc1c[nH]c2ccccc12)NC(=O)[C@H](Cc1ccccc1)NCc1ccncc1 in this assay? -1

Could you please tell me the result logged for COc1cc(-c2ccc(-c3ccc(C(=N)N)s3)s2)cc(OC)c1OC in this assay? -1

Could you please tell me the result logged for COc1cc2cc(Oc3ccc(NC(=O)Nc4ccc(Cl)c(Cl)c4)cc3)c(C)nc2cc1OCCN1CCCCC1 in this assay? -1

Could you please tell me the result logged for C=C(C)[C@@H]1CC[C@]2(COC(=O)c3cccnc3)CC[C@]3(C)[C@H](CC[C@@H]4[C@@]5(C)CCCN(C(=O)c6cccnc6)C(C)(C)[C@@H]5CC[C@]43C)[C@@H]12 in this assay? -1

Could you please tell me the result logged for c1ccc2cc(Cn3cc[n+](Cc4ccc5ccccc5c4)c3)ccc2c1 in this assay? 1

Could you please tell me the result logged for CC1=C(C(=O)c2ccccc2)C(c2ccc3c(c2)OCO3)NC(=S)N1 (centres undefined) in this assay? -1

Could you please tell me the result logged for O=C(CNc1ncco1)Nc1ccc(S(=O)(=O)c2ccc(NC(=O)CNc3ncco3)cc2)cc1 in this assay? 1

Could you please tell me the result logged for Oc1cccc(-c2nc(-c3n[nH]c(=S)n3-c3ccccc3)cc3c2[nH]c2ccccc23)c1 in this assay? 1

Could you please tell me the result logged for Cc1c(N2CCCCC2)[nH]c2ccccc12 in this assay? -1

Could you please tell me the result logged for O=C(Nc1cccc2c1C(=O)c1cccc(NC(=O)c3ccc(C(=O)Nc4cccc5c4C(=O)c4cccc(NC(=O)c6ccccc6)c4C5=O)cc3)c1C2=O)c1ccccc1 in this assay? -1

Could you please tell me the result logged for COc1cc2c(c(OC)c1OC)CCC(c1cccc(C(=O)Nc3ccccc3Br)c1)O2 (centres undefined) in this assay? -1

Could you please tell me the result logged for CCOc1ccc(N2C(=O)CCSC2=S)cc1 in this assay? -1

Could you please tell me the result logged for COc1cccc(-c2nn(-c3ccccc3)cc2-c2ccnc(-c3cccnc3)c2)c1 in this assay? -1

Could you please tell me the result logged for CCCN1C(=O)N(CCC)C2C1NC(=S)N2/N=C/C=C/c1ccccc1OC (centres undefined) in this assay? 1
